Catalogue of whole-cell filipin (z-score) readings, one per entry.
Test system: A431
Test: whole-cell filipin (free cholesterol) integrated intensity, Z-score; higher = more cholesterol staining
Conditions: compound concentration in added solution (µM; 5 µl added to 20 µl cells): 10; 18 h
Structures can show the parent of a compound that is named as a salt.
RECORDED_ENDPOINT: whole-cell filipin (z-score)

Cc1cc2c(s1)Nc1ccccc1N=C2N1CCN(C)CC1 = 0.197
CCOC(=O)[C@H](CCc1ccccc1)N[C@H]1CCc2ccccc2N(CC(=O)O)C1=O [Benazepril HCl] = -0.676
COCCCOc1ccnc(C[S+]([O-])c2nc3ccccc3[nH]2)c1C (stereo not drawn) [Rabeprazole Sodium salt] = 0.0453

###

Tested on: HeLa MZ
Experiment: whole-cell filipin (free cholesterol) integrated intensity, Z-score; higher = more cholesterol staining
Details: compound concentration in added solution (µM; 5 µl added to 20 µl cells): 10; 18 h
Counter-ions that a name gives are not always drawn.
Assign criterion met to entries whose whole-cell filipin (z-score) meets or exceeds -0.1; assign criterion not met to the rest.

N=C(N)N/N=C/c1c(Cl)cccc1Cl [Guanabenz acetate] = criterion not met
Cc1cc2c(s1)Nc1ccccc1N=C2N1CCN(C)CC1 = criterion met
CC(=O)O[C@]1(C(C)=O)CC[C@H]2[C@@H]3C=C(C)C4=CC(=O)CC[C@]4(C)[C@H]3CC[C@@]21C [Megestrol acetate] = criterion met
CCOCCn1c(N2CCCN(C)CC2)nc2ccccc21 = criterion not met
N=C(N)N1CCc2ccccc2C1 [Debrisoquin sulfate] = criterion not met
Cc1c(N)c(=O)n(-c2ccccc2)n1C = criterion not met
N[C@@H]1CONC1=O = criterion not met

###

Tested on: HeLa MZ
Experiment: LBPA endosome anti-LBPA integrated intensity (sum per cell), Z-score; higher = more LBPA staining
Conditions: compound concentration in added solution (µM; 5 µl added to 20 µl cells): 10; 18 h
Where a name gives a salt, the structure may show the parent alone.
RECORDED_ENDPOINT: LBPA endosome anti-LBPA integrated intensity (z-score)

C[C@@](Cc1ccc(O)c(O)c1)(NN)C(=O)O = -0.537
CC[N+](CC)(CC)CCC(O)(c1ccccc1)C1CCCCC1 (configuration not stated) [Tridihexethyl chloride] = -0.578
CC(=O)N(CC(C)C(=O)O)c1c(I)cc(I)c(N)c1I (configuration not stated) = -0.0236
CC1=C(C(=O)O)N2C(=O)[C@@H](NC(=O)[C@H](N)c3ccccc3)[C@H]2SC1 [Cephalexin monohydrate] = -0.797
CN(C)CCCN1c2ccccc2Sc2ccccc21 [Promazine hydrochloride] = 2.59
CC(CCc1ccccc1)NCC(O)c1ccc(O)c(C(N)=O)c1 (configuration not stated) [Labetalol hydrochloride] = 1.06
CCc1cc(C(N)=S)ccn1 [Ethionamide] = -0.148

###

Catalogue of whole-cell filipin (z-score) readings, one per entry.
Tested on: A431
Test: whole-cell filipin (free cholesterol) integrated intensity, Z-score; higher = more cholesterol staining
Conditions: compound concentration in added solution (µM; 5 µl added to 20 µl cells): 10; 18 h
Counter-ions that a name gives are not always drawn.
RECORDED_ENDPOINT: whole-cell filipin (z-score)

CCOCCn1c(N2CCCN(C)CC2)nc2ccccc21 = -0.629
Cc1nccn1CC1CCc2c(c3ccccc3n2C)C1=O (stereo unspecified) [Ondansetron Hydrochloride] = -0.22
CC(=O)Oc1ccc(C(c2ccc(OC(C)=O)cc2)c2ccccn2)cc1 = -0.546
CN1C(C)(C)CCCC1(C)C [Pempidine tartrate] = -0.191
C[C@H]1O[C@H](O[C@H]2[C@H](O)[C@@H](O)[C@@H](O[C@H]3[C@H](O)[C@@H](O)C(O)O[C@@H]3CO)O[C@@H]2CO)[C@H](O)[C@@H](O)[C@@H]1N[C@H]1C=C(CO)[C@@H](O)[C@H](O)[C@H]1O (stereo partly specified) = -0.828
N[C@@H](C(=O)N[C@@H]1C(=O)N2C(C(=O)O)=C(Cl)CC[C@H]12)c1ccccc1 = -0.847

###

System: A431
Experiment: LBPA endosome anti-LBPA integrated intensity (sum per cell), Z-score; higher = more LBPA staining
Settings: compound concentration in added solution (µM; 5 µl added to 20 µl cells): 10; 18 h
Structures can show the parent of a compound that is named as a salt.
Assign rule met to entries whose LBPA endosome anti-LBPA integrated intensity (z-score) meets or exceeds -0.5; assign rule not met to the rest.

CC(CCc1ccc(O)cc1)NCCc1ccc(O)c(O)c1 (configuration not stated) [Dobutamine hydrochloride] = rule met
CC(C)NC[C@H](O)COc1ccc(CC(N)=O)cc1 [(S)-(-)-Atenolol] = rule met
C#CCN(C)Cc1ccccc1 [Pargyline hydrochloride] = rule met
CS(=O)(=O)OCCCCOS(C)(=O)=O = rule not met
N=C(N=C(N)N)N1CCOCC1 [Moroxidine hydrochloride] = rule not met
CC(C)NCC(O)c1ccc(O)c(O)c1 (single isomer, unassigned; (+)) [(+)-Isoproterenol (+)-bitartrate salt] = rule met
CC(C)COCC(CN(Cc1ccccc1)c1ccccc1)N1CCCC1 (configuration not stated) [Bepridil hydrochloride] = rule met
OC(Cn1cncn1)(Cn1cncn1)c1ccc(F)cc1F = rule met
CCN1CCN(C(=O)N[C@@H](C(=O)N[C@@H]2C(=O)N3[C@@H]2SC(C)(C)[C@@H]3C(=O)O)c2ccccc2)C(=O)C1=O [Piperacillin sodium salt] = rule met
CCCCNc1c(C(=O)OCC)c(C)nc2c1cnn2CC [Tracazolate hydrochloride] = rule met
CCOC(=O)C(C)(C)Oc1ccc(Cl)cc1 [Clofibrate] = rule met
COC(c1ccccc1)(c1ccccc1)[C@H](Oc1nc(C)cc(C)n1)C(=O)O = rule met
CCN(CC)C(=O)c1ccc(O)c(OC)c1 = rule met
Clc1cccc(Cl)c1NC1=NCCN1 [Clonidine hydrochloride] = rule met
C[C@@H]1CN(c2c(F)c(N)c3c(=O)c(C(=O)O)cn(C4CC4)c3c2F)C[C@H](C)N1 = rule met
CC[C@H](C)C(=O)O[C@H]1C[C@@H](C)C=C2C=C[C@H](C)[C@H](CC[C@@H]3C[C@@H](O)CC(=O)O3)[C@H]21 = rule not met
CN(C)CCOC(C)(c1ccccc1)c1ccccn1 (configuration not stated) [Doxylamine succinate] = rule met
CC(C)(Sc1cc(C(C)(C)C)c(O)c(C(C)(C)C)c1)Sc1cc(C(C)(C)C)c(O)c(C(C)(C)C)c1 = rule met
CCOC(=O)[C@H](CCc1ccccc1)N[C@@H](C)C(=O)N1CCC[C@H]1C(=O)O [Enalapril maleate] = rule not met
CN(C)CCCSC(=N)N [Dimaprit dihydrochloride] = rule not met
O=C(NCC(O)CO)c1c(I)c(C(=O)NCC(O)CO)c(I)c(N(CCO)C(=O)CO)c1I (configuration not stated) = rule not met
CC(C(O)c1ccc(O)cc1)N1CCC(Cc2ccccc2)CC1 (configuration not stated) [Ifenprodil tartrate] = rule met

###

Tested on: HeLa MZ
Test: filipin (cholesterol) integrated intensity within LBPA endosomes, Z-score; higher = more cholesterol in LBPA endosomes
Settings: compound concentration in added solution (µM; 5 µl added to 20 µl cells): 10; 18 h
Counter-ions that a name gives are not always drawn.
Catalogue of filipin (z-score) readings, one per entry.
RECORDED_ENDPOINT: filipin (z-score)

C[C@]12C[C@H](O)[C@H]3[C@@H](CCC4=CC(=O)CC[C@@]43C)[C@@H]1CC[C@@H]2C(=O)CO [Corticosterone] = -0.407
OC(CCN1CCCCC1)(c1ccccc1)C1CCCCC1 (stereo not drawn) [Trihexyphenidyl-D,L Hydrochloride] = 0.149
Nc1c(Br)cc(Br)cc1CN[C@H]1CC[C@H](O)CC1 [Ambroxol hydrochloride] = -0.0836
CO[C@H]1/C=C/O[C@@]2(C)Oc3c(C)c(O)c4c(c3C2=O)C2=NC3(CCN(CC(C)C)CC3)NC2=C(NC(=O)/C(C)=C\C=C\[C@H](C)[C@H](O)[C@@H](C)[C@@H](O)[C@@H](C)[C@H](OC(C)=O)[C@@H]1C)C4=O [Rifabutin] = 0.633
C/C(=C(\CCOP(=O)(O)O)SC(=O)c1ccccc1)N(C=O)Cc1cnc(C)nc1N [Benfotiamine] = -0.31
COc1cc(N)c(Cl)cc1C(=O)NC1CCN(CCCOc2ccc(F)cc2)CC1OC (stereo not drawn) [Cisapride] = 0.672
CO[C@H]1/C=C/O[C@@]2(C)Oc3c(C)c(O)c4c(O)c(c5c(nc6cc(C)ccn65)c4c3C2=O)NC(=O)/C(C)=C\C=C\[C@H](C)[C@H](O)[C@@H](C)[C@@H](O)[C@@H](C)[C@H](OC(C)=O)[C@@H]1C [Rifaximin] = -0.143
CN[C@@H]1[C@H](O[C@H]2[C@H](O[C@H]3[C@H](O)[C@@H](O)[C@H](N=C(N)N)[C@@H](O)[C@@H]3N=C(N)N)O[C@@H](C)[C@]2(O)C=O)O[C@@H](CO)[C@H](O)[C@H]1O [Streptomycin sulfate] = -0.576
